test system: HepG2; test: Cytotoxicity against human HepG2 cells assessed as inhibition of cell proliferation after 24 hrs by MTT assay; type: functional, cell-based; settings: HepG2, 24 h
Recorded IC50 for the following compounds
# number only, unit µM dropped from output

compound: CCOC(=O)c1c(C)[nH]c(=O)c(C#N)c1-c1ccc(C#N)cc1
target.desc: HepG2
result.units: µM
IC50: 20.2
//
compound: COc1cccc2c1C(=O)c1c(O)c3c(c(O)c1C2=O)C[C@@](O)(C(=O)CO)C[C@@H]3O[C@H]1C[C@H](N)[C@H](O)[C@H](C)O1 [DOXORUBICIN]
target.desc: HepG2
result.units: µM
IC50: 3.39

So, CCOC(=O)c1c(C)[nH]c(=O)c(C#N)c1-c1cccs1 ? Its IC50 was 74

----------
test: Cytotoxicity against human SKOV3 cells assessed as inhibition of cell proliferation after 24 hrs by MTT assay; format: functional, cell-based; details: SK-OV-3, 24 h
pIC50: −log10 of the molar value.
Recorded pIC50 for the following compounds

So, CCOC(=O)c1c(C)[nH]c(=O)c(C#N)c1-c1ccc(Br)cc1 ? Its pIC50 was < 4.00

So, CCOC(=O)c1c(C)[nH]c(=O)c(C#N)c1-c1ccc(F)cc1 ? Its pIC50 was < 4.00

So, CCOC(=O)c1c(C)[nH]c(=O)c(C#N)c1-c1cccs1 ? Its pIC50 was 4.01

So, COc1cccc2c1C(=O)c1c(O)c3c(c(O)c1C2=O)C[C@@](O)(C(=O)CO)C[C@@H]3O[C@H]1C[C@H](N)[C@H](O)[C@H](C)O1 ? Its pIC50 was 4.60

So, CCOC(=O)c1c(C)[nH]c(=O)c(C#N)c1-c1ccc2c(c1)OCO2 ? Its pIC50 was < 4.00

So, CCOC(=O)c1c(C)[nH]c(=O)c(C#N)c1-c1ccc(C#N)cc1 ? Its pIC50 was < 4.00

So, CCOC(=O)c1c(C)[nH]c(=O)c(C#N)c1-c1ccco1 ? Its pIC50 was 4.12

So, CCOC(=O)c1c(C)[nH]c(=O)c(C#N)c1-c1ccc(OC)cc1 ? Its pIC50 was < 4.00

So, CCOC(=O)c1c(C)[nH]c(=O)c(C#N)c1-c1ccc([N+](=O)[O-])cc1 ? Its pIC50 was < 4.00

So, CCOC(=O)c1c(C)[nH]c(=O)c(C#N)c1-c1cc(OC)c(OC)c(OC)c1 ? Its pIC50 was < 4.00

So, CCOC(=O)c1c(C)[nH]c(=O)c(C#N)c1-c1ccccc1 ? Its pIC50 was < 4.00

----------
system: HepG2; assay: Cytotoxicity against human HepG2 cells assessed as inhibition of cell proliferation after 24 hrs by MTT assay; format: functional, cell-based; settings: HepG2, 24 h
Recorded pIC50 for the following compounds
Please treat pIC50 as minus the base-10 logarithm of the molar concentration.

Solved cases (5 shown):
smiles.notation: CCOC(=O)c1c(C)[nH]c(=O)c(C#N)c1-c1cccc2ccccc12
pIC50: 4.49

smiles.notation: CCOC(=O)c1c(C)[nH]c(=O)c(C#N)c1-c1ccco1
pIC50: 4.24

smiles.notation: CCOC(=O)c1c(C)[nH]c(=O)c(C#N)c1-c1ccc([N+](=O)[O-])cc1
pIC50: 4.66

smiles.notation: CCOC(=O)c1c(C)[nH]c(=O)c(C#N)c1-c1ccccc1
pIC50: 4.42

smiles.notation: CCOC(=O)c1c(C)[nH]c(=O)c(C#N)c1-c1ccc(OC)cc1
pIC50: 4.29

Pending compound:
So, CCOC(=O)c1c(C)[nH]c(=O)c(C#N)c1-c1ccccc1Cl ? Its pIC50 was 4.47

----------
system: HepG2; assay: Cytotoxicity against human HepG2 cells assessed as inhibition of cell proliferation after 24 hrs by MTT assay; format: functional, cell-based; conditions: HepG2, 24 h
assay.readout: IC50 (µM)
# number only, unit µM dropped from output

Solved cases (3 shown):
smiles.notation: CCOC(=O)c1c(C)[nH]c(=O)c(C#N)c1-c1ccc(C)cc1
target.desc: HepG2
IC50 / µM: 11.9
--
smiles.notation: CCOC(=O)c1c(C)[nH]c(=O)c(C#N)c1-c1cc(OC)c(OC)c(OC)c1
target.desc: HepG2
IC50 / µM: 20.9
--
smiles.notation: CCOC(=O)c1c(C)[nH]c(=O)c(C#N)c1-c1ccc(Br)cc1
target.desc: HepG2
IC50 / µM: 65.5

So, CCOC(=O)c1c(C)[nH]c(=O)c(C#N)c1-c1ccc(F)cc1 ? Its IC50 was 18.6

----------
Recorded pIC50 for the following compounds
system: A549; assay: Cytotoxicity against human A549 cells assessed as inhibition of cell proliferation after 24 hrs by MTT assay; type: functional, cell-based; conditions: A549, 24 h
Please treat pIC50 as minus the base-10 logarithm of the molar concentration.

Solved cases (4 shown):
smiles.notation: CCOC(=O)c1c(C)[nH]c(=O)c(C#N)c1-c1ccc2c(c1)OCO2
target.desc: A549
pIC50: 4.56
--
smiles.notation: CCOC(=O)c1c(C)[nH]c(=O)c(C#N)c1-c1ccc(C)cc1
target.desc: A549
pIC50: 4.80
--
smiles.notation: CCOC(=O)c1c(C)[nH]c(=O)c(C#N)c1-c1ccccc1Cl
target.desc: A549
pIC50: 4.60
--
smiles.notation: CCOC(=O)c1c(C)[nH]c(=O)c(C#N)c1-c1cccs1
target.desc: A549
pIC50: 4.70

So, CCOC(=O)c1c(C)[nH]c(=O)c(C#N)c1-c1ccc(F)cc1 ? Its pIC50 was 4.81

So, COc1cccc2c1C(=O)c1c(O)c3c(c(O)c1C2=O)C[C@@](O)(C(=O)CO)C[C@@H]3O[C@H]1C[C@H](N)[C@H](O)[C@H](C)O1 ? Its pIC50 was 6.64

So, CCOC(=O)c1c(C)[nH]c(=O)c(C#N)c1-c1cccc2ccccc12 ? Its pIC50 was 4.62

So, CCOC(=O)c1c(C)[nH]c(=O)c(C#N)c1-c1ccc(OC)cc1 ? Its pIC50 was 4.60

So, CCOC(=O)c1c(C)[nH]c(=O)c(C#N)c1-c1cc(OC)c(OC)c(OC)c1 ? Its pIC50 was 4.63

----------
experiment: Cytotoxicity against human SKOV3 cells assessed as inhibition of cell proliferation after 24 hrs by MTT assay; assay type: functional, cell-based; conditions: SK-OV-3, 24 h
pIC50: −log10 of the molar value.
assay.readout: pIC50

Solved cases (2 shown):
smiles.notation: CCOC(=O)c1c(C)[nH]c(=O)c(C#N)c1-c1ccccc1Cl
pIC50: < 4.00

smiles.notation: CCOC(=O)c1c(C)[nH]c(=O)c(C#N)c1-c1cccc2ccccc12
pIC50: < 4.00

Pending molecule:
So, CCOC(=O)c1c(C)[nH]c(=O)c(C#N)c1-c1ccc(C)cc1 ? Its pIC50 was < 4.00
